From: patent US20110306606A1

# Tested on: Osteoblasts (Calvarial cells)
# assay: Cytotoxicity test (MTT)
# conditions.used: 1 μM compound, 72 hours, in comparison with vehicle control
quantity.measured: Cell viability (%) Calvarial cell
Numeric answer only, unit % assumed.

Q: Data request, read-out Cell viability (%) Calvarial cell, for CC(C)(C)Nc1ccc([N+](=O)[O-])c(Nc2ccc(N3CCNCC3)c(F)c2)n1 [Compound 222]
Ans: 95

Q: Data request, read-out Cell viability (%) Calvarial cell, for CC(C)Nc1ccc([N+](=O)[O-])c(Nc2ccc(N3CCC(N)CC3)c(F)c2)n1 [Compound 249]
Ans: 101

Q: Data request, read-out Cell viability (%) Calvarial cell, for NC1CCN(c2ccc([N+](=O)[O-])c(Nc3ccc(N4CCC(O)CC4)c(F)c3)n2)CC1 [Compound 246]
Ans: 105

Q: Data request, read-out Cell viability (%) Calvarial cell, for O=[N+]([O-])c1ccc(N2CCOCC2)nc1Nc1ccc(N2CCCC(CO)C2)c(F)c1 (centres unmarked) [Compound 283]
Ans: 103

Q: Data request, read-out Cell viability (%) Calvarial cell, for CC1=NCCN1c1ccc([N+](=O)[O-])c(Nc2ccc(C#N)cc2)n1 [Compound 48]
Ans: 103

Continuing:
Q: Data request, read-out Cell viability (%) Calvarial cell, for Nc1cccc(Nc2nc(NCCCN3CCOCC3)ccc2[N+](=O)[O-])c1 [Compound 84]
Ans: 108

Q: Data request, read-out Cell viability (%) Calvarial cell, for O=C(O)C1CCN(c2ccc(Nc3nc(NCCN4CCOCC4)ccc3[N+](=O)[O-])cc2F)CC1 [Compound 324]
Ans: 82
